RUN DESCRIPTION: Permeability using Caco-2 cell monolayer
PROTOCOL CONDITIONS: human, Caco-2, pH 7.4, Caco-2 BA Papp, basal to apical; 2.00 μM
QUANTITY: Papp at 2 h, 2 μM (×10⁻⁶ cm/s)

- COMPOUND: "FC(F)(F)c1c(Cl)ccc(-n2ccnn2)c1Cl [8l]"
  QUANTITY: "Papp at 2 h, 2 μM"
  RECORDED MEASUREMENT: 30.3

###

RUN DESCRIPTION: Stability in mouse liver microsomes
Assay type: in vitro ADME
PROTOCOL CONDITIONS: mouse, liver microsomes, Table S4; read-out: MLM Stability t1/2
Parameter: half-life. Scope: all listed entries.

- COMPOUND: "OCc1cn(-c2ccc(Cl)c(C(F)(F)F)c2Cl)nn1"
  half-life / h: 1.75
- COMPOUND: "FC(F)(F)c1c(Cl)cnc(-n2ccnn2)c1Cl"
  half-life / h: 2
- COMPOUND: "[2H]c1nnn(-c2ccc(Cl)c(C(F)(F)F)c2Cl)c1[2H] [d2-8l]"
  half-life / h: 2.15
- COMPOUND: "FC(F)(F)c1c(Cl)ccc(-n2ccnn2)c1Cl"
  half-life / h: 2
- COMPOUND: "OCc1cn(-c2ccc(Cl)c(Cl)c2)nn1"
  half-life / h: 0.263

###

EXPERIMENTAL SYSTEM: human Notum (81–451 Cys330Ser) (Homo sapiens, UniProt Q6P988, C330S)
Construct: human Notum (81–451 Cys330Ser) as the enzyme; made in house
Sequence (Q6P988 81-451 C330S): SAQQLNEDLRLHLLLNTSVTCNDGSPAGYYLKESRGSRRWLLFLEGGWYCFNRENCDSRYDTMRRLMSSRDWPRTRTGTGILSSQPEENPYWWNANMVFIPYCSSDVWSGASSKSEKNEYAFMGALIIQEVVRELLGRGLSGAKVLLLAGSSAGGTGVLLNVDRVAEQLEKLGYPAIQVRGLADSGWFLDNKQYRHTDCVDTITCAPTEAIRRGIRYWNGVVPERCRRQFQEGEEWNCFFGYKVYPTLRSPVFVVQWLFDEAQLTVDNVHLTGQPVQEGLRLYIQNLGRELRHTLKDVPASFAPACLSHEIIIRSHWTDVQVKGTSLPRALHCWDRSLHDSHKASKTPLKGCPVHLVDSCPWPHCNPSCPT
RUN DESCRIPTION: Notum OPTS biochemical assay
PROTOCOL CONDITIONS: OPTS substrate; mean; read-out: Notum IC50
Parameter: log10 IC50. Scope: all listed entries.
QUANTITY: log10 IC50 (log10 of the value in µM)

- COMPOUND: "OCc1cn(-c2cccc(F)c2)nn1"
  EXPERIMENTAL SYSTEM: "human Notum (81–451 Cys330Ser) (Homo sapiens, UniProt Q6P988, C330S)"
  QUANTITY: "log10 IC50"
  RECORDED MEASUREMENT: 1.40
- COMPOUND: "N#Cc1ccc(-n2cc(CO)nn2)cc1"
  EXPERIMENTAL SYSTEM: "human Notum (81–451 Cys330Ser) (Homo sapiens, UniProt Q6P988, C330S)"
  QUANTITY: "log10 IC50"
  RECORDED MEASUREMENT: 2.43
- COMPOUND: "OCc1cn(-c2ccc(C(F)(F)F)c(C(F)(F)F)c2)nn1"
  EXPERIMENTAL SYSTEM: "human Notum (81–451 Cys330Ser) (Homo sapiens, UniProt Q6P988, C330S)"
  QUANTITY: "log10 IC50"
  RECORDED MEASUREMENT: 0.34
- COMPOUND: "OCc1cn(-c2ccccc2)nn1"
  EXPERIMENTAL SYSTEM: "human Notum (81–451 Cys330Ser) (Homo sapiens, UniProt Q6P988, C330S)"
  QUANTITY: "log10 IC50"
  RECORDED MEASUREMENT: 2.04
- COMPOUND: "O=C(O)c1cn(-c2ccc(Cl)c(C(F)(F)F)c2Cl)nn1"
  EXPERIMENTAL SYSTEM: "human Notum (81–451 Cys330Ser) (Homo sapiens, UniProt Q6P988, C330S)"
  QUANTITY: "log10 IC50"
  RECORDED MEASUREMENT: -1.51
- COMPOUND: "OCCc1cn(-c2ccc(Cl)c(C(F)(F)F)c2Cl)nn1"
  EXPERIMENTAL SYSTEM: "human Notum (81–451 Cys330Ser) (Homo sapiens, UniProt Q6P988, C330S)"
  QUANTITY: "log10 IC50"
  RECORDED MEASUREMENT: 0.76
- COMPOUND: "NCc1cn(-c2ccc(Cl)c(C(F)(F)F)c2Cl)nn1"
  EXPERIMENTAL SYSTEM: "human Notum (81–451 Cys330Ser) (Homo sapiens, UniProt Q6P988, C330S)"
  QUANTITY: "log10 IC50"
  RECORDED MEASUREMENT: -0.04
- COMPOUND: "CC(O)c1cn(-c2ccc(Cl)c(C(F)(F)F)c2Cl)nn1 (stereo not drawn)"
  EXPERIMENTAL SYSTEM: "human Notum (81–451 Cys330Ser) (Homo sapiens, UniProt Q6P988, C330S)"
  QUANTITY: "log10 IC50"
  RECORDED MEASUREMENT: 0.26
- COMPOUND: "COCc1cn(-c2ccc(Cl)c(C(F)(F)F)c2Cl)nn1"
  EXPERIMENTAL SYSTEM: "human Notum (81–451 Cys330Ser) (Homo sapiens, UniProt Q6P988, C330S)"
  QUANTITY: "log10 IC50"
  RECORDED MEASUREMENT: -0.70

Data credit: paper PMC9150124
